- Tested on: Staphylococcus aureus
- experiment: Antibacterial activity against Staphylococcus aureus ATCC 25930 after 24 hrs by serial dilution method
- Type: functional
- details: ATCC 25930, 24 h
Please note: MIC exactly at 20 µg/mL is Not fulfilled. Only values below 20 µg/mL get Fulfilled.

Consider COc1ccc(C2C3CCCC(C(c4ccc(OC)cc4)N2C(C)=O)C32SC(NC(C)=O)=NN2C(C)=O)cc1 (stereo not given) . Does its MIC lie strictly below 20 µg/mL? Not fulfilled

Query CCC(=O)NC1=NN(C(=O)CC)C2(S1)C1CCCC2C(c2cccc(OC)c2)N(C(=O)CC)C1c1cccc(OC)c1 (stereo not given) next Not fulfilled

Query COc1cccc(C2NC(c3cccc(OC)c3)C3CCCC2C32SC(NC(C)=O)=NN2C(C)=O)c1 (stereo not given) next Not fulfilled

Query CC(=O)NC1=NN(C(C)=O)C2(S1)C1CCCC2C(c2cccc(F)c2)NC1c1cccc(F)c1 (stereo not given) next Not fulfilled

Query CC(=O)N(C1=NN(C(C)=O)C2(S1)C1CCCC2C(c2ccc(Cl)cc2)N(C(C)=O)C1c1ccc(Cl)cc1)c1ccccc1 (stereo not given) next Fulfilled

Query CCC(=O)NC1=NN(C(=O)CC)C2(S1)C1CCCC2C(c2cccc(F)c2)NC1c1cccc(F)c1 (stereo not given) next Not fulfilled

Query CC(=O)N(C1=NN(C(C)=O)C2(S1)C1CCCC2C(c2ccccc2Cl)NC1c1ccccc1Cl)c1ccccc1 (stereo not given) next Not fulfilled

Query CCC(=O)NC1=NN(C(=O)CC)C2(S1)C1CCCC2C(c2ccccc2Cl)NC1c1ccccc1Cl (stereo not given) next Not fulfilled

Query CCC(=O)NC1=NN(C(=O)CC)C2(S1)C1CCCC2C(c2ccc(C)cc2)NC1c1ccc(C)cc1 (stereo not given) next Not fulfilled

Query CC(=O)NC1=NN(C(C)=O)C2(S1)C1CCCC2C(c2ccc(C)cc2)NC1c1ccc(C)cc1 (stereo not given) next Not fulfilled

Query CC(=O)NC1=NN(C(C)=O)C2(S1)C1CCCC2C(c2ccccc2Cl)NC1c1ccccc1Cl (stereo not given) next Fulfilled

Query CC(=O)NC1=NN(C(C)=O)C2(S1)C1CCCC2C(c2ccccc2)N(C(C)=O)C1c1ccccc1 (stereo not given) next Fulfilled

Query CCC(=O)NC1=NN(C(=O)CC)C2(S1)C1CCCC2C(c2ccc(F)cc2)NC1c1ccc(F)cc1 (stereo not given) next Not fulfilled

Query CC(=O)NC1=NN(C(C)=O)C2(S1)C1CCCC2C(c2ccc(Cl)cc2)NC1c1ccc(Cl)cc1 (stereo not given) next Not fulfilled

Query CN[C@@H]1[C@H](O[C@H]2[C@H](O[C@H]3[C@H](O)[C@@H](O)[C@H](N=C(N)N)[C@@H](O)[C@@H]3N=C(N)N)O[C@@H](C)[C@]2(O)C=O)O[C@@H](CO)[C@H](O)[C@H]1O next Not fulfilled

Query CCC(=O)NC1=NN(C(=O)CC)C2(S1)C1CCCC2C(c2ccc(Cl)cc2)NC1c1ccc(Cl)cc1 (stereo not given) next Not fulfilled

Query CC(=O)NC1=NN(C(C)=O)C2(S1)C1CCCC2C(c2ccc(F)cc2)NC1c1ccc(F)cc1 (stereo not given) next Not fulfilled

Query CCC(=O)N(C1=NN(C(=O)CC)C2(S1)C1CCCC2C(c2ccccc2Cl)NC1c1ccccc1Cl)c1ccccc1 (stereo not given) next Fulfilled

Query CCC(=O)NC1=NN(C(=O)CC)C2(S1)C1CCCC2C(c2ccccc2)N(C(=O)CC)C1c1ccccc1 (stereo not given) next Fulfilled

Query CCC(=O)NC1=NN(C(=O)CC)C2(S1)C1CCCC2C(c2ccc(OC)cc2)N(C(=O)CC)C1c1ccc(OC)cc1 (stereo not given) next Not fulfilled
